tgt: Lysyl oxidase homolog 2 (Homo sapiens, UniProt Q9Y4K0)
Sequence (Q9Y4K0 whole entry): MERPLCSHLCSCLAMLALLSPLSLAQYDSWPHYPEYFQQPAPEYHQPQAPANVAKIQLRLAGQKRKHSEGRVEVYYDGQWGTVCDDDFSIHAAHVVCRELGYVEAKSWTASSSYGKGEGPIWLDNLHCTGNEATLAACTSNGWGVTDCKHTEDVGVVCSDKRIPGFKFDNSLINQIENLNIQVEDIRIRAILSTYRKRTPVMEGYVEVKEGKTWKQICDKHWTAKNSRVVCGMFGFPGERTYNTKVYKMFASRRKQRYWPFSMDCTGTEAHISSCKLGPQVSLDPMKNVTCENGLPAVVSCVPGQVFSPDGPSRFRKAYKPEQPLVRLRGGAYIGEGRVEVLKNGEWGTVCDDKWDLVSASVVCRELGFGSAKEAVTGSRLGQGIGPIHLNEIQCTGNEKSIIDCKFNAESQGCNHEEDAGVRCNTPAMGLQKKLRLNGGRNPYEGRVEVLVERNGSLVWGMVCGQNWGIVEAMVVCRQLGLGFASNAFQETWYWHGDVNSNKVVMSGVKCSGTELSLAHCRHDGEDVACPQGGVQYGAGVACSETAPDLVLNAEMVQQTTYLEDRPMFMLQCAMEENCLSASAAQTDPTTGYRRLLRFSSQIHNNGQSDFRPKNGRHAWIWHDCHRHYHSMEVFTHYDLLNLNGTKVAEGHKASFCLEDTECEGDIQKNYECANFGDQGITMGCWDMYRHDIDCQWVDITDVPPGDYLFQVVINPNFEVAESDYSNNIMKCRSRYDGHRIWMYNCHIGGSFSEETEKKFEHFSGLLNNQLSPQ
procedure summary: Inhibition of human LOXL2 expressed in CHO cells assessed as reduction of H2O2 production from oxidative deamination of DAP preincubated for 2 hrs followed by substrate addition in presence of 0.1% BSA measured every 2 mins for 1 hr by amplex red reagent-based fluorescence assay
Format: cell-based
IC50 values, listed per item
Number only, in nM; omit the unit.

Consider the worked cases shown below.
[
  {
    "smiles str": "NCc1ccnc(Oc2cccc(C(=O)Nc3ccc(C(=O)O)cc3)c2)c1",
    "IC50 [nM]": 300
  },
  {
    "smiles str": "COCCNC(=O)c1ccc(Oc2cc(CN)ccn2)cc1",
    "IC50 [nM]": 1500
  }
]

Please turn your attention to the following entry.
Reported IC50 for `NCc1ccnc(Oc2cccc(C(=O)NCc3ccccc3)c2)c1` : what is it?
110

Just for reference, ChEMBL document CHEMBL4049456 is where these values come from.
